test: Clearance in human liver microsomes assessed per mg protein for 5 mins in presence of NADPH by LC-MS/MS analysis; format: ADME, Microsome; details: read-out: CLH
Measured Attribute: microsomal CLint (µL/min/mg)

[[record]]
query_smiles = "CSc1cc(C)nc(SC)c1NC(=O)CN1CCN(CCSc2nc3ccccc3[nH]2)CC1.Cl"
unit_descriptor = "µL/min/mg"
observed_value = 720

